Tested on: K562
test description: NCI tumour cell line growth inhibition, 48 h
Calls of active or inactive are those of the source. Rule as the data show it: active = GI50 up to about 1.1 µM and inactive = higher.
Below, each entry is listed with its recorded GI50.

Answered cases to consult:
compound	target of assay	reported value
N#CC12Cc3ccc4c(c3-c3cccc(c31)CCN2C(=O)c1ccccc1)OCO4 (stereo unspecified)	K562	> 100 µM (inactive)
CC1(C)O[C@@H](CP(c2ccc3ccccc3c2)c2ccc3ccccc3c2)[C@H](CP(c2ccc3ccccc3c2)c2ccc3ccccc3c2)O1	K562	77.1 µM (inactive)
Cc1ccccc1C(=O)C1CCCCC1O (stereo unspecified)	K562	> 100 µM (inactive)
CCNC(=O)Nc1cccc(C)n1	K562	> 100 µM (inactive)
O=S(O)CCCCSSCCCCS(=O)(=O)S	K562	32.1 µM (inactive)

Continue with the compound presented below.
Sample CCN(CC)c1ccc(/C=C/C(=O)c2cc(C(C)(C)C)c(O)c(C(C)(C)C)c2)cc1 ; GI50 observed: 8.45 µM (inactive)

---

System: NCI/ADR-RES
test description: NCI tumour cell line growth inhibition, 48 h
Structures can show the parent of a compound that is named as a salt. The source made the active and inactive calls. Rule as the data show it: active = GI50 up to about 1.1 µM and inactive = higher. Residues, ends and D or L forms follow the SMILES beside them. *: point of attachment. Tfa = O=C(C(F)(F)F)*
Below, each entry is listed with its recorded GI50.

Answered cases to consult:
compound	target of assay	reported value
c1ccc(-c2sc(-c3ccccc3)c3c2C2CCC3C2)cc1	NCI/ADR-RES	29.8 µM (inactive)
CCN(CC)CCOC(=O)Cc1cccc2c(=O)cc(-c3ccccc3)oc12	NCI/ADR-RES	50 µM (inactive)
COC(=O)N1CC(=O)C(C(=O)NC23CC4CC(CC(C4)C2)C3)C1 (centres undefined)	NCI/ADR-RES	84.1 µM (inactive)

Sample CSC1=N/C(=C\c2ccco2)C(=O)N1CN1CCOCC1 ; GI50 observed: > 61.8 µM (inactive)

Sample O=C(O)CC(NC(=O)C(F)(F)F)C(=O)NC(Cc1ccc(O)cc1)C(=O)O (stereo not drawn) (Tfa-Asp-Tyr-OH; configuration not given here) ; GI50 observed: > 50 µM (inactive)

Sample NC(Cc1ccc2nc3c4ccccc4c(=O)cc-3oc2c1)C(=O)O (centres undefined) ; GI50 observed: > 100 µM (inactive)

Sample O=C(/C=C/c1ccccc1)Oc1ccc(C(=O)/C=C/c2ccc(Cl)cc2)cc1 ; GI50 observed: 46.5 µM (inactive)

Sample N#CC1C(=O)SC2c3ccccc3C(=O)c3ccccc3C12 (centres undefined) ; GI50 observed: > 10 µM (inactive)

Sample CN(C)[C@H]1CC[C@H]2[C@@H]3CCC4C[C@@H](NC(=O)NC(Cc5ccccc5)c5nccs5)CC[C@]4(C)[C@H]3CC[C@]12C (some centres undefined) ; GI50 observed: 1.77 µM (inactive)

---

Below, each entry is listed with its recorded GI50.
Test system: SNB-19
test description: NCI tumour cell line growth inhibition, 48 h
Activity calls are given as the source filed them. Rule as the data show it: active = GI50 up to about 1.1 µM and inactive = higher.

molecule	GI50
CC1(C)/C(=N\NC(N)=O)C2CCC1C2 (stereo unspecified)	> 100 µM (inactive)

Continue with the molecule presented below.
Sample O=C(NC(=O)c1c(F)cccc1F)Nc1cccc(Oc2ncc(Cl)cn2)c1 ; GI50 observed: 45.5 µM (inactive)

---

System: RXF 393
test description: NCI tumour cell line growth inhibition, 48 h
Calls of active or inactive are those of the source. No stated cut-off is given here; in the data, active = GI50 up to about 1.1 µM and inactive = higher.
experimental endpoint: GI50

compound	GI50
Clc1ccc(-c2nn3c(COc4cccc(OCc5nnc6sc(-c7ccc(Cl)cc7)nn56)c4)nnc3s2)cc1	16.1 µM (inactive)
COc1cc(/C=C(\C)[N+](=O)[O-])cc(OC)c1	7.48 µM (inactive)

Sample CC(C)/C(Cl)=N/OC(=O)Nc1ccc(Cl)c(Cl)c1 ; GI50 observed: 13.4 µM (inactive)

Sample CCOC(=O)N1CCC2C(=C(C)C(C)C3=C2C(=O)c2ccccc2C3=O)C1 (stereo not given) ; GI50 observed: > 10 µM (inactive)

Sample O=C(ON=c1c2ccccc2ccc2ccccc12)c1ccccc1 ; GI50 observed: 17.9 µM (inactive)
